Reference source: PubChem BioAssay AID1159580

# assay procedure: chemical genetic growth profiling, strain panel (AID 1159580);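 also: tested at 20 µM; growth read once vehicle control cultures reached saturation at 30 °C; lower values mean less growth of the strain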
# condition parameters: S. cerevisiae deletion strains, growth OD, locus YLR262C, strain YPT6 (second series)
Screen size: about 5,500 compounds; about 2,000 (36%) were called active. Inconclusive results (about 18%) are left out. Rule as the data show it: active = normalized growth mostly below about 0.91 (no sharp cut-off); inconclusive = no clear call, values can overlap the other calls; inactive = mostly above about 0.92. Some of the results follow.
Outcome codes: active, inactive

{"columns": ["molecule", "class label"],
 "data": [
  ["CO/N=C(\\C(=O)NC1C(=O)N2C(C(=O)O)=C(COC(N)=O)CSC12)c1ccco1 (stereo unspecified)", "inactive"],
  ["CO/N=C(\\C(=O)N[C@@H]1C(=O)N2C(C(=O)O)=C(CSc3nc(=O)c(O)nn3C)CS[C@H]12)c1csc(N)n1", "inactive"],
  ["CC(C)(Oc1ccc(C2CC2(Cl)Cl)cc1)C(=O)O (stereo unspecified)", "inactive"],
  ["CC(=O)N[C@@H](CS)C(=O)O", "inactive"],
  ["Cn1c(=O)c2[nH]cnc2n(C)c1=O", "inactive"],
  ["CC[C@H](C)C(=O)O[C@H]1CCC=C2C=C[C@H](C)C(CCC3C[C@@H](O)CC(=O)O3)[C@H]21 (stereo partly specified)", "active"],
  ["CCN(CC)C(=O)c1cccc(C)c1", "inactive"],
  ["O=C(C1CCCCC1)N1CC(=O)N2CCc3ccccc3C2C1 (stereo unspecified)", "inactive"],
  ["CC(C)NNC(=O)c1ccncc1", "inactive"],
  ["C=C1C(=O)O[C@@H]2C3O[C@]3(C)CC/C=C(\\C)CC[C@@H]12 (stereo partly specified)", "active"],
  ["C=C1C(=O)OC2CC1C(OC(C)=O)C/C(C)=C/CC/C(C)=C/CC[C@]2(C)O (stereo partly specified)", "inactive"],
  ["CC(C(=O)O)c1ccc(C(=O)c2cccs2)cc1 (stereo unspecified)", "inactive"],
  ["CC(C)[C@@H]1CC[C@@H](C)C[C@H]1O", "inactive"],
  ["COc1cc([C@@H]2c3cc4c(c(O)c3C[C@H]3COC(=O)[C@@H]32)OCO4)cc(OC)c1OC", "inactive"],
  ["CCCCCCOc1ccccc1C(N)=O", "inactive"],
  ["CC(=O)OC1CCC2(C)C(=CC=C3C2CCC2(C)C3CCC2C(C)/C=C/C(C)C(C)C)C1(C)C (stereo unspecified)", "inactive"],
  ["CC(=O)OCC[C@H](C)CCC=C(C)C", "inactive"],
  ["C#CCCCCCCCCCCCC(O)CC(O)CO (stereo unspecified)", "inactive"],
  ["CC(C)COCC(CN(Cc1ccccc1)c1ccccc1)N1CCCC1 (stereo unspecified)", "inactive"],
  ["COc1c2ccoc2c(OC)c2oc(=O)ccc12", "inactive"],
  ["Nc1ccc(N=Nc2ccccc2)c(N)n1", "active"],
  ["COC(=O)C(O)c1ccccc1 (stereo unspecified)", "inactive"],
  ["Nc1nc2ncc(=O)[nH]c2c(=O)[nH]1", "inactive"],
  ["C=C1CCC(OC(C)=O)/C(C)=C/C[C@@H]2[C@@H]1CC2(C)C (stereo partly specified)", "inactive"],
  ["C=C1C(=O)O[C@@H]2C[C@@]3(C)CCC[C@H](C)C3=C[C@H]12", "active"],
  ["N[C@@H](CC(=O)N1CCn2c(nnc2C(F)(F)F)C1)Cc1cc(F)c(F)cc1F", "inactive"],
  ["Cc1cccc(Nc2ccccc2C(=O)O)c1C", "active"],
  ["C=C1CCC2C(CC2(C)C)C(=O)CCC1O (stereo unspecified)", "inactive"],
  ["Cc1cc(-c2ccccc2)nnc1NCCN1CCOCC1", "inactive"],
  ["CCCCC(=O)Oc1ccccc1C(=O)O", "inactive"],
  ["COc1c(OC)c2occc2c2oc(=O)ccc12", "inactive"],
  ["CCOC(=O)c1ccc(O)cc1", "inactive"],
  ["CC[N+](CC)(CC)CCOc1cccc(OCC[N+](CC)(CC)CC)c1OCC[N+](CC)(CC)CC", "inactive"],
  ["CC(=O)Oc1c(C)cccc1C(=O)O", "inactive"],
  ["O=C1NC(=O)C(=O)C(=O)N1", "inactive"],
  ["CC(C)C(C)/C=C/C(C)C1CCC2C3=CC=C4CC(O)CCC4(C)C3CCC21C (stereo unspecified)", "active"],
  ["COc1cc(OC)c2c(=O)c(-c3ccccc3)coc2c1", "inactive"],
  ["CO/N=C(\\C(=O)N[C@@H]1C(=O)N2C(C(=O)O)=C(COC(C)=O)CS[C@H]12)c1csc(N)n1", "inactive"],
  ["C#CCCCCCCCCCCCC(=O)CC(O)COC(C)=O (stereo unspecified)", "active"],
  ["CC1=CC2C(CC1=O)C(C)=CCC2C(C)C (stereo unspecified)", "inactive"],
  ["C=CCSCC1Nc2cc(Cl)c(S(N)(=O)=O)cc2S(=O)(=O)N1 (stereo unspecified)", "inactive"]
]}
